tested-system: CDK2/cyclin A (Homo sapiens)
assay-info: Protein kinase assay, CDK2/cyclin A
run-conditions: 15 µM ATP, 30 °C, triplicates
Description: Evaluation of the protein kinase inhibitory activity was performed in vitro as previously described. Briefly, homogenization buffer: 60 mM β-glycerophosphate, 15 mM p-nitrophenylphosphate, 25 mM Mops (pH 7.2), 15 mM EGTA, 15 mM MgCl2, 1 mM dithiothreitol, 1 mM sodium vanadate, 1 mM NaF, 1 mM phenylphosphate, 10 µg leupeptin mL^−1, 10 µg aprotinin mL^−1, 10 µg soybean trypsin inhibitor mL^−1, and 100 µg benzamidine. […]
pIC50: −log10 of the molar value.
parameter-measured: pIC50

Guide cases for pIC50, answers given:
INSERT INTO measurements (molecule, parameter_measured, value_observed) VALUES
  ('C[C@@]12CCC(=O)c3coc(c31)C(=O)c1cc3c(O)ccc(OS(=O)(=O)O)c3cc12 [Compound 12]', 'pIC50', 5.12),
  ('C[C@@]12CCCc3coc(c31)C(=O)c1cc3c(cc12)C(=O)C=C(NCCS(=O)(=O)O)C3=O [Compound 8, secoadociaquinone B]', 'pIC50', '< 5.00'),
  ('C[C@@]12CCCc3coc(c31)C(=O)c1cc3c(cc12)C(=O)C1=C(NCCS1(=O)=O)C3=O [Compound 6, adociaquinone B]', 'pIC50', '< 5.00');

Qu. Could you share what pIC50 was measured for CO[C@]12OC(O)C3=C1[C@@](C)(CCC3=O)c1cc3c(OS(=O)(=O)O)ccc(O)c3cc1C2=O (stereo partly shown) [Compound 13] , tested on CDK2/cyclin A (Homo sapiens)?
Ans. < 5.00
